Biological target: T1, LIN7A, O14910
T1 sequence (O14910 103-200, limits assumed, looked up): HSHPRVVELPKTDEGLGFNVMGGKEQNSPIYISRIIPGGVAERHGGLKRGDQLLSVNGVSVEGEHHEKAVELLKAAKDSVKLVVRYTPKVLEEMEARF
Assay: holdup assay
Design: key: below the threshold = too weak to quantify, mostly under pKd 3.1 to 4
Conditions: plain residues with an end cap or a label only (N-terminal biotin on a linker: ado-ado)
RECORDED METRIC: pKd

# BINDER, TEST VALUE
records = [
    ("QKNKDKEYYV [NRXN3_rs746444206, Q9Y4C0]", "below the threshold"),
    ("GFGEERESIL [KIDINS220, Q9ULH0]", 3.55),
    ("TETASVCTKV [SLC23A1, Q9UHI7]", "below the threshold"),
    ("FVHPILQSAV [PRKCA, P17252]", "below the threshold"),
]

Cited source: paper PMC9482650
